- target-desc: nhr-66 (T09A12.4) (Caenorhabditis elegans)
- Sequence: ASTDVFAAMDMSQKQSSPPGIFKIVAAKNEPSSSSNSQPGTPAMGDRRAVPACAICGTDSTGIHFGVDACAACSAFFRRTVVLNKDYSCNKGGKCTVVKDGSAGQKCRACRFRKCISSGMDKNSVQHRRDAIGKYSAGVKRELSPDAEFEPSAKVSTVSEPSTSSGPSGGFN
quantity-name: binding signal (PBM E-score (-0.5 to 0.5))
Give bare numbers.

[[record]]
monomer_sequence = "AACTACAA (double strand) [8-mer AACTACAA]"
measurement = 0.489

[[record]]
monomer_sequence = "ACTACAAC (double strand) [8-mer ACTACAAC]"
measurement = 0.482

[[record]]
monomer_sequence = "ACTACAAT (double strand) [8-mer ACTACAAT]"
measurement = 0.488


Now for another entry.
Provide binding signal (PBM E-score (-0.5 to 0.5)) value for the following sequence: GCTACAAA (double strand) [8-mer GCTACAAA]
0.482

* * *

- target-desc: ceh-34 (C10G8.6) (Caenorhabditis elegans)
- Sequence: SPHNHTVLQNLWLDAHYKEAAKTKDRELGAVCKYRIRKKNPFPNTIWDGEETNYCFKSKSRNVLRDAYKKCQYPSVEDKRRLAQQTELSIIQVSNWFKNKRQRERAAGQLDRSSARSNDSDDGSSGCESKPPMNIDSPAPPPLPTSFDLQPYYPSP
quantity-name: binding signal (PBM E-score (-0.5 to 0.5))
Numbers only.

[[record]]
monomer_sequence = "GAGTATCA (double strand) [8-mer GAGTATCA]"
target_desc = "ceh-34 (C10G8.6) (Caenorhabditis elegans)"
measurement = 0.46

[[record]]
monomer_sequence = "GGGTATCA (double strand) [8-mer GGGTATCA]"
target_desc = "ceh-34 (C10G8.6) (Caenorhabditis elegans)"
measurement = 0.49

[[record]]
monomer_sequence = "AGGTATCA (double strand) [8-mer AGGTATCA]"
target_desc = "ceh-34 (C10G8.6) (Caenorhabditis elegans)"
measurement = 0.474


Provide binding signal (PBM E-score (-0.5 to 0.5)) value for the following sequence: GGGGGATA (double strand) [8-mer GGGGGATA]
0.463

* * *

Hi there, I'd appreciate the recorded binding signal (PBM E-score (-0.5 to 0.5)) for every entry that follows.
- target-desc: hlh-12 (C28C12.8) (Caenorhabditis elegans) (UniProt Q18277)
- Sequence: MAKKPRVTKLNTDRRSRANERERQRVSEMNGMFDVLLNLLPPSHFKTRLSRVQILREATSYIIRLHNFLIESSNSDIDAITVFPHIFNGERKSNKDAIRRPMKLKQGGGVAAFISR
Numbers only.

[[record]]
monomer_sequence = "CAGCTGTC (double strand) [8-mer CAGCTGTC]"
measurement = 0.479

[[record]]
monomer_sequence = "ACAGCTGT (double strand) [8-mer ACAGCTGT]"
measurement = 0.496

[[record]]
monomer_sequence = "ACAGCTGG (double strand) [8-mer ACAGCTGG]"
measurement = 0.481

[[record]]
monomer_sequence = "ACCAGCTG (double strand) [8-mer ACCAGCTG]"
measurement = 0.456

[[record]]
monomer_sequence = "AACAGCTG (double strand) [8-mer AACAGCTG]"
measurement = 0.481


# batch size: 6; output binding signal (PBM E-score (-0.5 to 0.5)) per entry
1. ACCATATG (double strand) [8-mer ACCATATG]
2. ACCATCTG (double strand) [8-mer ACCATCTG]
3. ACAGATGT (double strand) [8-mer ACAGATGT]
4. ACAGATGG (double strand) [8-mer ACAGATGG]
5. AACATCTG (double strand) [8-mer AACATCTG]
6. AACATATG (double strand) [8-mer AACATATG]

1: 0.468; 2: 0.482; 3: 0.478; 4: 0.478; 5: 0.481; 6: 0.465

# batch size: 4; output binding signal (PBM E-score (-0.5 to 0.5)) per entry
1. ACATCTGG (double strand) [8-mer ACATCTGG]
2. ACATATGT (double strand) [8-mer ACATATGT]
3. AACAGATG (double strand) [8-mer AACAGATG]
4. CACAGCTG (double strand) [8-mer CACAGCTG]

[0.481, 0.476, 0.468, 0.475]

* * *

Hi there, I'd appreciate the recorded binding signal (PBM E-score (-0.5 to 0.5)) for every entry that follows.
- target-desc: mbr-1 (T01C1.2) (Caenorhabditis elegans) (UniProt G5EGQ5)
- Sequence: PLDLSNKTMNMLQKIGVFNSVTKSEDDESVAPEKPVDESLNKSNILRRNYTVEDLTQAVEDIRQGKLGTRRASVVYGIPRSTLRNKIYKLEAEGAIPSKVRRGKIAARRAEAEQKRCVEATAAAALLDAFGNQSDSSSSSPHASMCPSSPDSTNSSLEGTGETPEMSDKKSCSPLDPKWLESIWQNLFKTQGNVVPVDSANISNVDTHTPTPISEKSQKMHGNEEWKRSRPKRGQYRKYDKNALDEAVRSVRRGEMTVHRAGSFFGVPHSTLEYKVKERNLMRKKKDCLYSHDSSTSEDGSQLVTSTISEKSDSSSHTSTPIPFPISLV
Numbers only.

[[record]]
monomer_sequence = "AGGCCCCC (double strand) [8-mer AGGCCCCC]"
measurement = 0.495

[[record]]
monomer_sequence = "AGCCCCCC (double strand) [8-mer AGCCCCCC]"
measurement = 0.491


# batch size: 5; output binding signal (PBM E-score (-0.5 to 0.5)) per entry
1. GGGGCCTA (double strand) [8-mer GGGGCCTA]
2. GAGGGGCC (double strand) [8-mer GAGGGGCC]
3. ATGGCCCC (double strand) [8-mer ATGGCCCC]
4. AGGGGCCA (double strand) [8-mer AGGGGCCA]
5. CGGGGGGC (double strand) [8-mer CGGGGGGC]

1: 0.487; 2: 0.489; 3: 0.487; 4: 0.492; 5: 0.487

* * *

- target-desc: odr-7 (T18D3.2) (Caenorhabditis elegans) (UniProt P41933)
- Sequence: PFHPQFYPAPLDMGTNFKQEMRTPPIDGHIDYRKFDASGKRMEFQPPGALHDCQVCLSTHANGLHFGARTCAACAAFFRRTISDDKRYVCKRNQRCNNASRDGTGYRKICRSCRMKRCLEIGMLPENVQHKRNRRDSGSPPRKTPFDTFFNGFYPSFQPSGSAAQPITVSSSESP
Hi there, I'd appreciate the recorded binding signal (PBM E-score (-0.5 to 0.5)) for every entry that follows.
One number for each entry.

Consider the worked cases shown below.
[[record]]
monomer_sequence = "GACTACAA (double strand) [8-mer GACTACAA]"
target_desc = "odr-7 (T18D3.2) (Caenorhabditis elegans) (UniProt P41933)"
measurement = 0.476

[[record]]
monomer_sequence = "ACTACAAT (double strand) [8-mer ACTACAAT]"
target_desc = "odr-7 (T18D3.2) (Caenorhabditis elegans) (UniProt P41933)"
measurement = 0.49

[[record]]
monomer_sequence = "AGTACAAA (double strand) [8-mer AGTACAAA]"
target_desc = "odr-7 (T18D3.2) (Caenorhabditis elegans) (UniProt P41933)"
measurement = 0.451

[[record]]
monomer_sequence = "TACTACAA (double strand) [8-mer TACTACAA]"
target_desc = "odr-7 (T18D3.2) (Caenorhabditis elegans) (UniProt P41933)"
measurement = 0.474

[[record]]
monomer_sequence = "ACTACAAA (double strand) [8-mer ACTACAAA]"
target_desc = "odr-7 (T18D3.2) (Caenorhabditis elegans) (UniProt P41933)"
measurement = 0.491


# batch size: 3; output binding signal (PBM E-score (-0.5 to 0.5)) per entry
1. ATTTGTAG (double strand) [8-mer ATTTGTAG]
2. AAATTGTA (double strand) [8-mer AAATTGTA]
3. GCTACAAA (double strand) [8-mer GCTACAAA]

1. 0.479
2. 0.456
3. 0.462

* * *

- target-desc: let-381 (F26B1.7) (Caenorhabditis elegans)
- Sequence: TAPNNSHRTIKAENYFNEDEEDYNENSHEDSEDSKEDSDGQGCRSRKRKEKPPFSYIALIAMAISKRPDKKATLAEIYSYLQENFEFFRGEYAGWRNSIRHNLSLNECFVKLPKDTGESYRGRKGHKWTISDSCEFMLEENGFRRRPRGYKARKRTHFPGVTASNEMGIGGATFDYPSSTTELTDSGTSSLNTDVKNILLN
quantity-name: binding signal (PBM E-score (-0.5 to 0.5))
Answers are plain numbers.

[[record]]
monomer_sequence = "GTAAACAA (double strand) [8-mer GTAAACAA]"
measurement = 0.486

[[record]]
monomer_sequence = "GTAAACAC (double strand) [8-mer GTAAACAC]"
measurement = 0.452

[[record]]
monomer_sequence = "TAAACAAA (double strand) [8-mer TAAACAAA]"
measurement = 0.493

[[record]]
monomer_sequence = "TGTAAACA (double strand) [8-mer TGTAAACA]"
measurement = 0.461


# batch size: 5; output binding signal (PBM E-score (-0.5 to 0.5)) per entry
1. ATGTTTAC (double strand) [8-mer ATGTTTAC]
2. TATAAACA (double strand) [8-mer TATAAACA]
3. ATAAACAT (double strand) [8-mer ATAAACAT]
4. ATTGTTTA (double strand) [8-mer ATTGTTTA]
5. AGTAAACA (double strand) [8-mer AGTAAACA]

1. 0.455
2. 0.483
3. 0.473
4. 0.467
5. 0.457

# batch size: 2; output binding signal (PBM E-score (-0.5 to 0.5)) per entry
1. GTTTATAA (double strand) [8-mer GTTTATAA]
2. ATAAACAA (double strand) [8-mer ATAAACAA]

1: 0.459; 2: 0.489

These measurements were taken from paper PMC4434323.
